B1: NECAB1 (parent)
chain: NLDTEELCEYFSQHLGEYENVLAA

# Variants of: B1
# assay.overview: protein stability index of a GFP-peptide fusion (GPS, HEK-293T) (PSI 1-6); higher = more stable;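 note: lentivirally expressed fusions sorted by FACS into six bins by GFP to DsRed ratio, PSI derived from sequencing read proportions per bin multiplied by bin number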
# details: c terminus: a fixed tail appended
parameter.measured: protein stability index
Reply with just the number.

In [3]: df
Out[3]:
   mutation_id  number
0         A23H    2.83
1         S12D       4
2          E5N     2.4

Query: Consider the variant shown here: D3V What is its recorded protein stability index?
Reply: 1.53

Query: For the variant G16P , what protein stability index is on record?
Reply: 2.03

Query: May I ask what protein stability index has been recorded for E5P ?
Reply: 3.13
